Tested on: E. coli J3272 Tet sens.
ASSAY_COMMENT: MIC, agar dilution (Table IA)
Assay type: cell-based
CONDITION_PARAMETERS: unit assumed
EXPERIMENTAL_READOUT: Antibacterial activity (MIC) (µg/mL)
Write the number in µg/mL without appending the unit.

| COMPOUND | TESTED_SYSTEM | ASSAY_VALUE |
| --- | --- | --- |
| CC(C)CNCC(=O)Nc1cc(N(C)C)c2c(c1O)C(=O)C1=C(O)C3(O)C(=O)C(C(N)=O)=C(O)C(N(C)C)C3CC1C2.Cl.Cl (stereo not drawn) [TT] | E. coli J3272 Tet sens. | 0.5 |
| CN(C)c1cc(NC(=O)CN2CCC2)c(O)c2c1CC1CC3C(N(C)C)C(O)=C(C(N)=O)C(=O)C3(O)C(O)=C1C2=O (stereo not drawn) [LLL] | E. coli J3272 Tet sens. | 0.25 |

Proceeding to the next compound to report its Antibacterial activity (MIC).
Query for E. coli J3272 Tet sens.: what Antibacterial activity (MIC) does the record show for CC(C(=O)Nc1cc(N(C)C)c2c(c1O)C(=O)C1=C(O)[C@]3(O)C(=O)C(C(N)=O)=C(O)[C@@H](N(C)C)C3CC1C2)N(C)C.Cl.Cl (stereo partly drawn) [XX] ? 0.5

====

Antibacterial activity (MIC) by entry:
Tested on: E. coli PRP1 TetA
ASSAY_COMMENT: MIC, agar dilution (Table IA)
Format: cell-based
CONDITION_PARAMETERS: unit assumed
Write the number in µg/mL without appending the unit.

The following compounds have reported results that may help.
| COMPOUND | UOM | Antibacterial activity (MIC) |
| --- | --- | --- |
| CN(C)CC(=O)Nc1cc(N(C)C)c2c(c1O)C(=O)C1=C(O)[C@]3(O)C(=O)C(C(N)=O)=C(O)[C@@H](N(C)C)C3CC1C2.Cl.Cl (some centres unmarked) | µg/mL | 1 |
| CCCCN(C)CC(=O)Nc1cc(N(C)C)c2c(c1O)C(=O)C1=C(O)C3(O)C(=O)C(C(N)=O)=C(O)C(N(C)C)C3CC1C2.Cl.Cl (centres unmarked) | µg/mL | 2 |

Field request: Antibacterial activity (MIC) | item: CN(C)CC(=O)Nc1cc(N(C)C)c2c(c1O)C(=O)C1=C(O)[C@]3(O)C(=O)C(C(=O)NCN4CCCC4)=C(O)[C@@H](N(C)C)C3CC1C2 (some centres unmarked) 2

Field request: Antibacterial activity (MIC) | item: CN(C)c1cc(NC(=O)CN2CCCCC2)c(O)c2c1CC1CC3C(N(C)C)C(O)=C(C(N)=O)C(=O)C3(O)C(O)=C1C2=O.Cl.Cl (centres unmarked) 1

Field request: Antibacterial activity (MIC) | item: CN(C)CC(=O)Nc1cc(N(C)C)c2c(c1O)C(=O)C1=C(O)C3(O)C(=O)C(C(N)=O)=C(O)C(N(C)C)C3CC1C2.O=S(=O)(O)O.O=S(=O)(O)O (centres unmarked) 2

Field request: Antibacterial activity (MIC) | item: CC(C)CNCC(=O)Nc1cc(N(C)C)c2c(c1O)C(=O)C1=C(O)C3(O)C(=O)C(C(N)=O)=C(O)C(N(C)C)C3CC1C2.Cl.Cl (centres unmarked) 2

====

Antibacterial activity (MIC) by entry:
System: S. mariescens FDOR 8733
ASSAY_COMMENT: MIC, agar dilution (Table IA)
Format: cell-based
CONDITION_PARAMETERS: unit assumed

The following molecules have reported results that may help.
| MOLECULE | TESTED_SYSTEM | Antibacterial activity (MIC) |
| --- | --- | --- |
| CN(C)c1cc(NC(=O)CN2CCOCC2)c(O)c2c1CC1CC3[C@H](N(C)C)C(O)=C(C(N)=O)C(=O)[C@@]3(O)C(O)=C1C2=O.Cl.Cl (stereo partly drawn) | S. mariescens FDOR 8733 | > 32 µg/mL |
| CN(C)c1cc(NC(=O)Cn2ccnc2)c(O)c2c1CC1CC3[C@H](N(C)C)C(O)=C(C(N)=O)C(=O)[C@@]3(O)C(O)=C1C2=O.Cl.Cl (stereo partly drawn) | S. mariescens FDOR 8733 | > 32 µg/mL |

Field request: Antibacterial activity (MIC) | item: CN(C)c1cc(NC(=O)CBr)c(O)c2c1CC1CC3[C@H](N(C)C)C(O)=C(C(N)=O)C(=O)[C@@]3(O)C(O)=C1C2=O.Cl.Cl (stereo partly drawn) > 32 µg/mL

====

Test system: S. aureus UBMS 88-7 (tetK)
ASSAY_COMMENT: MIC, agar dilution
Format: cell-based
CONDITION_PARAMETERS: S. aureus UBMS 88-7 (tetK)
MIC by entry:

| MOLECULE | MIC |
| --- | --- |
| Cc1ccccc1C(=O)Nc1cc(N(C)C)c2c(c1O)C(=O)C1=C(O)C3(O)C(=O)C(C(N)=O)=C(O)C(N(C)C)C3CC1C2 (stereo not drawn) | 4 µg/mL |
| CN(C)c1cc(NC(=O)c2ccc([N+](=O)[O-])cc2)c(O)c2c1CC1CC3C(N(C)C)C(O)=C(C(N)=O)C(=O)C3(O)C(O)=C1C2=O (stereo not drawn) | 4 µg/mL |

Proceeding to the next molecule to report its MIC.
Field request: MIC | item: CCN(CC)c1cc(NC(C)=O)c(O)c2c1C[C@H]1C[C@H]3[C@H](N(C)C)C(O)=C(C(N)=O)C(=O)[C@@]3(O)C(O)=C1C2=O.O=S(=O)(O)O.O=S(=O)(O)O 4 µg/mL
